- ASSAY INFO: growth inhibition of CRL1545 osteosarcoma cells, cell-based, cisplatin and BGB IC20 combos (AID 1671464);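 note: cells exposed to compound for 96 hours before readout; 0% = vehicle DMSO and 100% = high DMSO killing control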
- MEASUREMENT CONDITIONS: measured here: with BGB IC20 combination, at 0.5 µM, stronger effect = higher value
MEASURED PROPERTY: inhibition (%)
One number for each entry, in %.

(Q) Read the entry O=C(Nc1ccccc1)c1ccccc1O and write its reported inhibition.
(A) 17.8

(Q) Read off the recorded inhibition for O=c1ncccn1[C@@H]1O[C@H](CO)[C@@H](O)[C@H]1O
(A) -27.5

(Q) Could you please provide reported inhibition for Cc1c(-c2cnccn2)ssc1=S ? Thanks!
(A) -51

Give inhibition for all compounds that follow.
1. O=c1[nH]c(-c2ccc(C(F)(F)F)cc2)nc2c1CSCC2
2. CO[C@H]1/C=C/O[C@@]2(C)Oc3c(C)c(O)c4c(O)c(c(C=NN5CCN(C)CC5)c(O)c4c3C2=O)NC(=O)/C(C)=C\C=C\[C@H](C)[C@H](O)[C@@H](C)[C@@H](O)[C@@H](C)[C@H](OC(C)=O)[C@@H]1C
3. O=C(Nc1ccncc1)c1cc([N+](=O)[O-])ccc1Cl
4. O=c1cc(-c2cccc3c2Sc2ccccc2S3)oc(N2CCOCC2)c1

(A)
-20.3
-8.55
-12.9
-8.28

====

- System: F380Y
- ASSAY INFO: modulators of BK channel variants, profiling panel, selectivity assay, cell-based, U2OS BacMam, thallium flux, beta subunits (AID 1259406);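 note: initial slope of Thallos dye fluorescence rise after thallium is added; log ratio against the mean of 0.3% DMSO vehicle wells on the same plate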
- MEASUREMENT CONDITIONS: at 30 µM
Active and inactive are the calls of the source.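 How the source made its calls: active means thallium flux through the channel raised or lowered by more than 3 SD from vehicle-only wells, actives on both sides; inactive means the rest.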
Would you mind telling me the reported log fold change Tl+ flux of each entry?

(Q) Note log fold change Tl+ flux for the molecule shown: Cc1cc(-c2nn(C)c(=O)c3ccccc23)cc(C)c1O
(A) 0.00104 (inactive)

(Q) Please supply the value of reported log fold change Tl+ flux for the item C[C@H]1[C@@H](OC(=O)CCC(=O)O)O[C@@H]2OC3(C)CC[C@H]4[C@H](C)CC[C@@H]1[C@@]24OO3
(A) 0.0198 (inactive)

(Q) Retrieve log fold change Tl+ flux measured for CCOC(=O)c1c[nH]n2c(=O)c3c(nc12)CCC3 and print it.
(A) 0.0447 (inactive)

(Q) # return recorded log fold change Tl+ flux for entry Cc1cc(=O)oc2cc(NC(=O)C3CCC(=O)N3)ccc12 (centres undefined)
(A) -0.00455 (inactive)

(Q) # return recorded log fold change Tl+ flux for entry C=C1/C(=C\C=C2/CCC[C@]3(C)[C@@H]([C@H](C)/C=C/[C@@H](O)C4CC4)CC[C@@H]23)C[C@@H](O)C[C@@H]1O
(A) 0.0327 (inactive)

(Q) Give reported log fold change Tl+ flux value for O=C(O[C@H]1[C@H](Oc2ccccc2COC(=O)C2(O)C=CCCC2=O)O[C@H](CO)[C@@H](O)[C@@H]1O)c1ccccc1 (some centres undefined)
(A) 0.0202 (inactive)

(Q) Please give measured log fold change Tl+ flux of the following entry: O=c1[nH]nc(N2CCSCC2)[nH]1
(A) 0.00841 (inactive)

(Q) Write down log fold change Tl+ flux measured for item COCC1=C(C(=O)OC(C)OC(=O)OC(C)C)N2C(=O)[C@@H](NC(=O)C(=NOC)c3csc(N)n3)[C@H]2SC1 (some centres undefined)
(A) 0.0206 (inactive)

Now look at this entry.
(Q) Identify measured log fold change Tl+ flux associated with COC(=O)c1cc(-c2nc(-c3ccc(Cl)cc3Cl)cs2)c(SC)s1
(A) -0.0122 (inactive)
